These data points were gathered from paper PMC9352680.

Molecular target: T1, PUF4 RNA-binding domain (Saccharomyces cerevisiae, UniProt P25339 537-888)
T1 sequence: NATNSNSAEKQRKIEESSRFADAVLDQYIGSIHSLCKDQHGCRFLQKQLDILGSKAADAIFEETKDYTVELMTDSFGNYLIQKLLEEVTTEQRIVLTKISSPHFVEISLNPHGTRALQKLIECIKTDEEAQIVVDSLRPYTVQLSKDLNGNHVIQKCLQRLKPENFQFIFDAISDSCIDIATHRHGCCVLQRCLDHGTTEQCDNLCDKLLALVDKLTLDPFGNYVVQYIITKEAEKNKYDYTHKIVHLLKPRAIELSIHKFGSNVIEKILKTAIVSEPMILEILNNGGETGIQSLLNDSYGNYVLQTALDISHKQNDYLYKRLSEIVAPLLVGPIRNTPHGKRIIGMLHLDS
Assay: Mg; RNA-MaP; 20 mM Na-HEPES pH 7.4, 30 mM KOAc, 0.75 mM MgCl2, 0.1% Tween-20, 5% glycerol, 0.1 mg/mL BSA, 2 mM DTT; 25 C; 0.0125-409.6 nM protein
Details: tags: N-His6-TEV cleaved; C-SNAP kept, Cy3B-labelled; label: tethered on chip by stalled RNA polymerase
Here the recorded log10 Kd is given for each entry.
Measurement Label: log10 Kd (log10 of the value in nM)

>>> endpoint_value("UCUCUUUGUAGUUUAUUCUCUU (ssRNA) [Ic_S1_P5E.1_K5.1_C5.1_H5.1_A5.1_[T5G]_[A7T]_F5.1_[T9A]_[A10T]_T5.1]")
1.18
>>> endpoint_value("Id_ii_S2_P3E.2_K3.1_C3.2_[C-2A]_[T-1C]_H3.1_A3.1_F3.1_T3.2_[T9G]_[A10C] (ssRNA) RNA: UUUGAUUAAUAUGAUAUCGUUCUUUCUACUGUAUAUAGCUUCUUUCUCGAUAUCAUAUUAAUCUUU")
0.85
>>> endpoint_value("Id_ii_S2_P5E.2_K5.1_C5.2_H5.1_A5.1_F5.1_T5.2_[T11A]_[A12C] (ssRNA) RNA: UUUGAUUAAUAUGAUAUCGUUCUUUCUCUUGUAUUAUUAACUUCUUUCUCGAUAUCAUAUUAAUCUUU")
0.64
>>> endpoint_value("UCUCUUGUUGUAUUAUUAAUUCUCUU (ssRNA) [Id_ii_S1_P5E.2_K5.1_C5.2_[C-2G]_H5.1_A5.1_F5.1_T5.2_[T11A]_[A12T]]")
0.99
>>> endpoint_value("Id_iii_S2_P3E.6_K3.2_C3.3_[T-1C]_H3.2_A3.1_F3.1_T3.2 (ssRNA) RNA: UUUGAUUAAUAUGAUAUCGUUCUUUCUUCCUAUAUAUAUAUUCUUUCUCGAUAUCAUAUUAAUCUUU")
1.46
>>> endpoint_value("Ic_S4_P5E.1_K5.1_C5.1_H5.1_A5.1_[T5C]_[A7C]_F5.1_[T9C]_[A10G]_T5.1 (ssRNA) RNA: UUUGACAACUGAUCGUUCUUUCUUGUACUCUCGUUCUUUCUCGAUCAGUUGUCUUU")
2.08
